# ASSAY EXPLANATION: Determination of logD (1-octanol / phosphate buffer pH 7.4)
# Assay type: physicochemical
# PARTICULARS: 1-octanol/phosphate buffer, pH 7.4, pH 7.4, 1-octanol/phosphate buffer; read-out: Log D, pH 7.4
METRIC NAME: logD
One number for each entry.

Solved cases (2 shown):
[
  {
    "COMPOUND": "CO[C@H]1CCN(C/C=C/C(=O)N2CCN(c3nc(OC[C@@]45CCCN4C[C@H](F)C5)nc4c(F)c(-c5cccc6cccc(Cl)c56)ncc34)C[C@@H]2CC#N)C1 [Compound 190]",
    "logD": 2.86
  },
  {
    "COMPOUND": "CO[C@H]1CCN(C/C=C/C(=O)N2CCN(c3nc(OC[C@@]45CCCN4C[C@H](F)C5)nc4c(F)c(-c5cccc6cccc(F)c56)ncc34)C[C@@H]2CC#N)C1 [Compound 222]",
    "logD": 2.76
  }
]

Record logD per entry; entries follow.
1. Cc1ncc(F)c(/C=C/C(=O)N2CCN(c3nc(OC[C@@]45CCCN4C[C@H](F)C5)nc4c(F)c(-c5cccc6cccc(Cl)c56)ncc34)C[C@@H]2CC#N)n1 [Compound 157]
2. Cc1cc(/C=C/C(=O)N2CCN(c3nc(OC[C@@]45CCCN4C[C@H](F)C5)nc4c(F)c(-c5cccc6ccc(F)c(C)c56)ncc34)C[C@@H]2CC#N)nc(C)n1 [Compound 105]
3. Cc1nsc(/C=C/C(=O)N2CCN(c3nc(OC[C@@]45CCCN4C[C@H](F)C5)nc4c3CCN(c3cccc5cccc(Cl)c35)C4)C[C@@H]2CC#N)n1 [Compound 127]
4. N#CC[C@H]1CN(c2nc(OCC34CCCN3CCC4)nc3c2CCN(c2cccc4cccc(Cl)c24)C3)CCN1C(=O)/C=C/c1ncccn1 [Compound 35]

1: 4.05; 2: 3.99; 3: 4.77; 4: 2.77

---

# STUDY TARGET: KRAS G12C (GMPPNP-loaded) and cRAF (Ras-binding domain) interaction (Homo sapiens (Human), UniProt P01116, C118S/C51S/C80L/G12C)
# Sequence (P01116 other isoform, or with tags, fused parts or gaps G12C/C51S/C80L/C118S): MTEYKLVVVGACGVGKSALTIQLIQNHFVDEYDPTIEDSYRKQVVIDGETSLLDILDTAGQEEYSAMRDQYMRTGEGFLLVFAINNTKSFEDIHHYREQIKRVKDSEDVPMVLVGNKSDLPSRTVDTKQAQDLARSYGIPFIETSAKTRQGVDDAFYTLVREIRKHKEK
# ASSAY EXPLANATION: Inhibition of KRAS G12C and cRAF binding (AlphaScreen)
# PARTICULARS: KRAS G12C loaded with GMPPNP, cRaf RBD, 2 hours preincubation; read-out: Raf-1 RBD K-Ras IC50
METRIC NAME: IC50

Record IC50 per entry; entries follow.
1. N#CC[C@H]1CN(c2nc(OCC34CCCN3CCC4)nc3c2CCN(c2cccc4cccc(Cl)c24)C3)CCN1C(=O)/C=C/CN1CC(F)(F)C1 [Compound 177]
2. C[C@@H]1CN(C/C=C/C(=O)N2CCN(c3nc(OC[C@@]45CCCN4C[C@H](F)C5)nc4c(F)c(-c5cccc(Cl)c5C5CC5)ncc34)C[C@@H]2CC#N)C[C@@H](C)O1 [Compound 301]

1. 10 to 100 nM
2. 10 to 100 nM

Record IC50 per entry; entries follow.
1. N#CC[C@H]1CN(c2nc(OCC34CCCN3CCC4)nc3c2CCN(c2cccc4cccc(Cl)c24)C3)CCN1C(=O)/C=C/CN1CC[C@H](F)C1 [Compound 174]
2. N#CC[C@H]1CN(c2nc(OC[C@@]34CCCN3C[C@H](F)C4)nc3c(F)c(-c4cccc5ccc(F)c(Cl)c45)ncc23)CCN1C(=O)/C=C/CN1CC2(COC2)C1 [Compound 161]
3. N#CC[C@H]1CN(c2nc(OCC34CCCN3CCC4)nc3c2CCN(c2cccc4cccc(Cl)c24)C3)CCN1C(=O)/C=C/CN1C2COCC1C2 [Compound 199]

< 10 nM
< 10 nM
< 10 nM
